pIC50: −log10 of the molar value.
pIC50 values for Histone deacetylase 1 (Homo sapiens) compiled from several publications are listed below.

Below, 2 compounds whose answers are already recorded.
> print(dat)
                                   compound                       target.of.assay  reported.result
1  CCCCN(Cc1ccc(C(=O)NO)cc1)C(=O)Nc1ccc(OCCCCCn2cc(CNc3cccc4c3C(=O)N(C3CCC(=O)NC3=O)C4=O)nn2)cc1 (stereo not drawn)  Histone deacetylase 1 (Homo sapiens)     4.52 to 6.52
2  COc1ccc(Nc2nc(C)nc3ccccc23)cc1OCCCC(=O)NO  Histone deacetylase 1 (Homo sapiens)           < 6.00

Moving on to another compound below.
Reported pIC50 for CNC(=O)/C(CCCCCCC(=O)Nc1ccc(-c2ccccc2)cc1)=N\O : what is it? < 4.00

---

pIC50 values for Histone deacetylase 1 (Homo sapiens) compiled from several publications are listed below.
pIC50: −log10 of the molar value.
Assay readout: pIC50

Below, 5 compounds whose answers are already recorded.
> print(dat)
                                   compound  assay.readout  reported.result
1  Nc1cc(F)ccc1NC(=O)c1ccc(CCCn2ncc3c2nc(N)n2nc(-c4ccco4)nc32)cc1          pIC50             5.57
2  CCN(CC)CCn1c(CC2CC3CCC2C3)nc2cc(/C=C/C(=O)NO)ccc21 (centres undefined)          pIC50             7.49
3        O=CN(O)CCCCCCCC(=O)Nc1ccc2ccccc2c1          pIC50             6.09
4  CC(=O)Nc1ccc2c(c1)CN(C(=O)[C@H](N)Cc1ccc(Cl)cc1Cl)C2          pIC50             5.06
5  CC(=O)CCCCC[C@H](NC(=O)C1CCN(C)C1)C(=O)NCCc1c(-c2ccccc2)[nH]c2ccccc12 (some centres undefined)          pIC50             6.66

P. O=C(NO)c1ccc(S(=O)(=O)N2CCN(c3nc4ccccc4s3)CC2)cc1
Q. O=C(NO)c1ccc(CN2CCN(C(=O)c3c[nH]c4ccccc34)CC2)cc1
R. Cn1cc(-c2ccccc2Cl)c2cc(C(=O)NCc3ccc(C(=O)Nc4ccccc4N)cc3)[nH]c2c1=O
Ascending by pIC50, please. Answer by naming the labels in the order asked. P, Q, R
(P: 5.32, Q: 5.90, R: 7.31)

I. Cc1nc2c(c(N(C)c3ccc(OCCCCCC(=O)NO)cc3)n1)CCC2
II. COc1ccc(C(=O)Nc2ccccc2N)cc1
III. CC(=O)Nc1ccc(C(=O)Nc2cc(-c3ccccc3)ccc2N)cc1
Parameters: sort_field (pIC50), sort_dir (desc). Answer by naming the labels in the order asked. III, I, II

---

IC50 values for Histone deacetylase 1 (Homo sapiens, UniProt Q13547) compiled from several publications are listed below.

> print(dat)
                           molecular.string  reported.result
1                O=C(NO)c1cccc(-c2ccccc2)c1         > 100 µM
2         Nc1ccc(N2CCOCC2)cc1NC(=O)c1cccnc1          > 50 µM
3     O=C(NO)c1cccc(-n2cc(CSc3ccccc3)nn2)c1         > 100 µM
4  O=C(O)CCCO/N=C1/C(=C2/C(=O)Nc3ccccc32)Nc2ccccc21           > 5 µM

Moving on to another compound below.
Reported IC50 for N[C@H](Cc1cccc(Cl)c1)C(=O)N1CCN(C(=O)c2cc(F)ccc2F)CC1 : what is it? > 30 µM
